Target or system: T1, γCAL domain of M58 (residues 1-198) (Synechococcus elongatus PCC 7942, UniProt Q03513 1-198)
T1 construct: also called γCAL198; source: E. coli BL21 (DE3), purified (Ni-NTA, H6Ub cleaved, SEC); not shown: His6-ubiquitin, N-terminal, cleaved
T1 sequence (looked up): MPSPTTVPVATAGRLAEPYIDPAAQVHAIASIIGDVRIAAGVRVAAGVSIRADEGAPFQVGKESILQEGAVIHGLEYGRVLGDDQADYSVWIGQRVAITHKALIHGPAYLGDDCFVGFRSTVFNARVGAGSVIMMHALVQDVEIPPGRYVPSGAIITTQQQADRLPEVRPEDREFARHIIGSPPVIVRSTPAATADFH
Method: ITC; EGFPC2_(17) (365 μM) in the syringe titrated into γCAL(1–198) (14 μM); 20 °C; 50 mM Tris pH 8.0/100 mM KCl/10 mM Mg(OAc)2; one-site binding model
Conditions: both partners purified
pKd: −log10 of the molar value.
Readout kind: pKd

# pKd (binder: GWLAPEQQQRIYRGNAS (the last 17 residues of CcaA, Synechococcus elongatus PCC 7942; residues 1-255 of CcaA replaced by EGFP-GSGGS; EGFP amplified from pEF-gfp (Addgene); source: E. coli BL21 (DE3), purified (Ni-NTA, H6Ub cleaved, SEC); not shown: EGFP with GSGGS linker, N-terminal, kept; His6-ubiquitin, N-terminal, cleaved) [EGFPC2_(17)] ) is ~5.70
